Provenance of the data: patent US9181193B2

Test system: HepG2 (human hepatoma cells)
Experiment: MTT in vitro anti-tumor activity test, HepG2
Assay type: cell-based
Conditions: HepG2, 100 μg/mL, MTT, 72 h
Would you kindly list HepG2 100 μg/mL IC % for each of these compounds?
The reply should contain only the number, in %.

HepG2 100 μg/mL IC % reported for this compound CCN(CC)CCOc1nc2ccccc2c2c1-c1ccc(Cl)cc1C2=O : 73.57

HepG2 100 μg/mL IC % reported for this compound COc1ccc2c(c1)C(=O)c1c-2c(OCCN(C)C)nc2ccccc12 : 99.40

HepG2 100 μg/mL IC % reported for this compound CCN(CC)CCOc1nc2ccc(OC)cc2c2c1-c1ccc(OC)cc1C2=O : 100

HepG2 100 μg/mL IC % reported for this compound CCN(CC)CCOc1nc2cc(OC)c(OC)cc2c2c1-c1ccc(OC)cc1C2=O : 93.16
